Molecular target: human TYK2 (JH2domain-pseudokinase) (Homo sapiens (Human), UniProt P29597)
Sequence (P29597 556-888): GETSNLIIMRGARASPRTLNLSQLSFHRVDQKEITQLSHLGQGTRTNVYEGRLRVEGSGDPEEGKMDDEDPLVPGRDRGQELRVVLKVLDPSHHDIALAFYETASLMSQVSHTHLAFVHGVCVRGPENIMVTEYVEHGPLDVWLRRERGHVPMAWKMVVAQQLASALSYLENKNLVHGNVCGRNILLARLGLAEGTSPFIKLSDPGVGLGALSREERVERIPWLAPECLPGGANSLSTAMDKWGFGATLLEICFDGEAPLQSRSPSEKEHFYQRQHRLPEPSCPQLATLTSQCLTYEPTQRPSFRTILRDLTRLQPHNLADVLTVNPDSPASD
Experiment: TYK2 JH2 Domain Binding Assay (KINOMEscan)
The following compounds are shown together with reported Kd values.

Compound: CNc1cc(Nc2cccn3cnnc23)nc2c(C(=O)NC3CC3)cnn12
Kd: < 0.2 nM

Compound: CNc1cc(Nc2cccn([C@@H]3CCCOC3)c2=O)nc2c(C(=O)N[C@H]3COC[C@H]3O)cnn12
Kd: < 0.2 nM

Compound: CNc1cc(Nc2cccn([C@@H]3CCCOC3)c2=O)nc2c(C(=O)NCC3(CO)CC3)cnn12
Kd: 0.2 to 1 nM

Compound: [2H]C([2H])([2H])Oc1ncc(F)cc1Nc1cc(NC)n2ncc(C(=O)NC3CCC3)c2n1
Kd: < 0.2 nM

Compound: COc1ncccc1Nc1cc(NCCCN2CCOCC2)n2ncc(C(=O)N[C@@H]3C[C@@H]3F)c2n1 (stereo in doubt)
Kd: 0.2 to 1 nM

Compound: CNc1cc(Nc2cc(F)cn(-c3cc(C)n(C)n3)c2=O)nc2c(C(=O)NC3CC3)cnn12
Kd: < 0.2 nM

Compound: CNc1cc(Nc2cccn([C@H]3CCC[C@H]3OC)c2=O)nc2c(C(=O)NC3CC3)cnn12 [I-491]
Kd: 1 to 10 nM

Compound: CNc1cc(Nc2cccn(C3CCOCC3)c2=O)nc2c(C(=O)NC[C@H](C)CO)cnn12
Kd: < 0.2 nM

Compound: CNc1cc(Nc2cccn([C@@H]3CCN(CCF)C3)c2=O)nc2c(C(=O)NC3CCC3OC)cnn12 (some centres unmarked)
Kd: < 0.2 nM

Compound: CNc1cc(Nc2cccn(-c3nn(C)c(C)c3C)c2=O)nc2c(C(=O)N[C@@H]3C[C@@H]3F)cnn12
Kd: 0.2 to 1 nM

Compound: CNc1cc(Nc2cccnc2OC2CC2)nc2c(C(=O)NC3CC3)cnn12
Kd: < 0.2 nM

Compound: CNc1cc(Nc2cccn(C3CCCCC3)c2=O)nc2c(C(=O)NCC(C)CO)cnn12 (centres unmarked)
Kd: < 0.2 nM

Compound: CNc1cc(Nc2cccn(CCOC3CC3)c2=O)nc2c(C(=O)N[C@H]3CC[C@@H]3O)cnn12
Kd: 1 to 10 nM

Compound: CNc1cc(Nc2cccn([C@H]3CCC[C@H]3O)c2=O)nc2c(C(=O)NC3CC3)cnn12
Kd: < 0.2 nM

Compound: CNc1cc(Nc2cccnc2OC)nc2c(C(=O)NCC(C)(C)CO)cnn12
Kd: < 0.2 nM

Compound: CNc1cc(Nc2cccn([C@H]3CC[C@H](OC)CC3)c2=O)nc2c(C(=O)NC3CCC3)cnn12
Kd: < 0.2 nM

Compound: CNc1cc(Nc2cccn(-c3cncc(F)c3)c2=O)nc2c(C(=O)N[C@@H]3C[C@@H]3F)cnn12
Kd: < 0.2 nM

Compound: CNc1cc(Nc2cccn(C3CCOCC3)c2=O)nc2c(C(=O)N[C@@H]3CCC[C@@H](O)C3)cnn12 [I-1290]
Kd: > 10 nM

Compound: CNc1cc(Nc2cccn(C3CCCCC3)c2=O)nc2c(C(=O)NC[C@H](C)CO)cnn12
Kd: 0.2 to 1 nM

Compound: CNc1cc(Nc2cc(Cl)cn([C@@H]3CCCOC3)c2=O)nc2c(C(=O)N[C@H]3[C@@H]4COC[C@@H]43)cnn12
Kd: 0.2 to 1 nM

Compound: CNc1cc(Nc2cccn3cnnc23)nc2c(C(=O)N[C@H]3C[C@H]3F)cnn12
Kd: < 0.2 nM

Compound: CNc1cc(Nc2cccn(-c3cccc(C(C)(C)O)n3)c2=O)nc2c(C(=O)N[C@H]3C[C@H]3F)cnn12
Kd: < 0.2 nM

Compound: CNc1cc(-c2cn(CCN3CCOCC3)c3ncccc23)nc2c(C(=O)N[C@H]3CC[C@@H]3OC)cnn12
Kd: < 0.2 nM

Compound: CNc1cc(-c2cn([C@H]3CCC[C@@H]3OC)c3ncccc23)nc2c(C(=O)N[C@H]3CC[C@H]3O)cnn12
Kd: 0.2 to 1 nM

Compound: CO[C@@H]1CCN(c2cc(Nc3cc(N)n4ncc(C(N)=O)c4n3)cc(C)n2)C1
Kd: 1 to 10 nM

Compound: CNc1cc(Nc2cc(C)cn(-c3cnn(C4CC4)c3C)c2=O)nc2c(C(N)=O)cnn12
Kd: 1 to 10 nM

Compound: CNc1cc(Nc2cccc3ocnc23)nc2c(C(=O)NCC(C)(C)CO)cnn12
Kd: < 0.2 nM

Compound: CNc1cc(Nc2cccn(-c3nc(C)co3)c2=O)nc2c(C(=O)NC[C@H](C)CO)cnn12
Kd: < 0.2 nM

Compound: CNc1cc(Nc2cccn([C@@H]3CCC[C@@H](O)C3)c2=O)nc2c(C(=O)N[C@H]3CC[C@@H]3OC)cnn12 [I-1129]
Kd: 1 to 10 nM

Compound: CNc1cc(Nc2cccn(C(C)C)c2=O)nc2c(C(=O)NC3CC3)cnn12
Kd: 0.2 to 1 nM

Compound: CNc1cc(Nc2cccn([C@H]3CCC[C@@H](OC)C3)c2=O)nc2c(C(=O)N[C@H]3CC[C@@H]3O)cnn12
Kd: < 0.2 nM

Compound: CNc1cc(Nc2cccn(C(C)C)c2=O)nc2c(C(=O)N[C@H]3CCCC[C@]3(C)O)cnn12
Kd: < 0.2 nM

---

Molecular target: JAK2/JAK2 homdimeric complex (Homo sapiens (Human), UniProt O60674)
Sequence (O60674 whole entry): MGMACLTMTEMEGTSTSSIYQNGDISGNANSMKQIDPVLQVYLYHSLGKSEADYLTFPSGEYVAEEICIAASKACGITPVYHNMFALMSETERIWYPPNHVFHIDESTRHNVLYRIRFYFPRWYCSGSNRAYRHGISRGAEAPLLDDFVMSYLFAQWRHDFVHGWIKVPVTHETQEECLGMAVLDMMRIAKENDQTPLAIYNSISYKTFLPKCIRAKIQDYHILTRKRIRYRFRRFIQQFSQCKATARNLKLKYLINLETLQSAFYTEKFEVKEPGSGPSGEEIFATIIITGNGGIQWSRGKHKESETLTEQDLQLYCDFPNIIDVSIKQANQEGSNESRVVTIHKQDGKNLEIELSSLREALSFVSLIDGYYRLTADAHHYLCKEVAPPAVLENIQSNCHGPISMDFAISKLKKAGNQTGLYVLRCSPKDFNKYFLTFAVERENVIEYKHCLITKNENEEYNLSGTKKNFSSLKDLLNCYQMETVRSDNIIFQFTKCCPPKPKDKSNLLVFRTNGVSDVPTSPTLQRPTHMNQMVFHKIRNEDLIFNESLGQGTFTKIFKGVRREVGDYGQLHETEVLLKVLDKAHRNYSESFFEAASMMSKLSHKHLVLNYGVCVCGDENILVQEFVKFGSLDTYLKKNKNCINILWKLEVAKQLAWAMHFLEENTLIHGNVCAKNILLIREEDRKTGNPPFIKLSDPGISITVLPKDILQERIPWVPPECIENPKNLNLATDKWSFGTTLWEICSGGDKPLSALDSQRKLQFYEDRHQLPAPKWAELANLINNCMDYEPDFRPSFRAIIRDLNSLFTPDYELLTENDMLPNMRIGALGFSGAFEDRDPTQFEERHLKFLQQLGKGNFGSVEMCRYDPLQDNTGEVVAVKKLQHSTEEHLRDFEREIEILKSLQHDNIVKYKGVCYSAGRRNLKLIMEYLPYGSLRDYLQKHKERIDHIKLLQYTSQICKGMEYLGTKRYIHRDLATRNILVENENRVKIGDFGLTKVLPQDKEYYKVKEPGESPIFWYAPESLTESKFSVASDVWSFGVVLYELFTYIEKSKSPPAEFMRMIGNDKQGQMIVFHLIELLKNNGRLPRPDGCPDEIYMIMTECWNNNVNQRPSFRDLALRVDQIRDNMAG
Sequence (P32927 17-897 partner): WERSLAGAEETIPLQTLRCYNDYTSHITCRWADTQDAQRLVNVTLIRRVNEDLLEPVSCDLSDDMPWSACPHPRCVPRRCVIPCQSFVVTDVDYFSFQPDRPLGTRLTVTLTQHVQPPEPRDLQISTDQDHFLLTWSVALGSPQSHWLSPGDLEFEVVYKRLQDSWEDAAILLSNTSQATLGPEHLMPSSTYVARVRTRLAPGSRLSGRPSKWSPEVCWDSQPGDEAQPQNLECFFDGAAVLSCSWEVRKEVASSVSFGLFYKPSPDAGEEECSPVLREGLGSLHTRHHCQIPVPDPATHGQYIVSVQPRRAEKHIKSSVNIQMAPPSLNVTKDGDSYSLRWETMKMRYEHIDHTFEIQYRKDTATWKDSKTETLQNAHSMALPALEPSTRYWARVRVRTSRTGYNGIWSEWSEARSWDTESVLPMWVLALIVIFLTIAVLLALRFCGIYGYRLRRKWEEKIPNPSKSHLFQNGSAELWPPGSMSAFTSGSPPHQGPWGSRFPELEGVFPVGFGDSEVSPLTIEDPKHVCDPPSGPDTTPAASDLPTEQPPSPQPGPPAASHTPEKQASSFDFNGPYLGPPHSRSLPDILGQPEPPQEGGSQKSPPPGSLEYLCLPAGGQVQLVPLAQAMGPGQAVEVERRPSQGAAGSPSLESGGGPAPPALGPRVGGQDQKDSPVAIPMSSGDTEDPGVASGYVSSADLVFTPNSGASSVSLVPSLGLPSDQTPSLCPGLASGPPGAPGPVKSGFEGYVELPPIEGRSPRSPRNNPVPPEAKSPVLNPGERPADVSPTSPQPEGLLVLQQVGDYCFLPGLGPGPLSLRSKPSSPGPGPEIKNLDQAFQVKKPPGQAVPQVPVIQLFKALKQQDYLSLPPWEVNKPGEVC
Assay: GM-CSF Induced pSTAT5 in Human PBMC
Conditions: GM-CSF 5 ng/mL for 20 minutes, pSTAT5 by MSD, read-out: PBMC_GMCSF_pSTAT5 IC50
pIC50: −log10 of the molar value.
// reported pIC50 per item
Measurement Name: pIC50

Molecule: CNc1cc(Nc2cccnc2OC)nc2c(C(=O)N[C@@H]3CC[C@H]3O)cnn12 [I-396]
Measurement Name: pIC50
Experimental Result: < 4.30
//
Molecule: CNc1cc(Nc2cccnc2OC)nc2c(C(=O)NC3CC3)cnn12
Measurement Name: pIC50
Experimental Result: < 4.30
//
Molecule: CNc1cc(Nc2cccn([C@H]3CCC[C@@H](OC)C3)c2=O)nc2c(C(=O)N[C@H]3CC[C@@H]3OC)cnn12
Measurement Name: pIC50
Experimental Result: < 4.30
//
Molecule: CNC(=O)c1occc1Nc1cc(NC)n2ncc(C(=O)N[C@@H]3C[C@@H]3F)c2n1
Measurement Name: pIC50
Experimental Result: < 4.30
//
Molecule: CNc1cc(Nc2cccn(-c3ccc(C4CC4)nn3)c2=O)nc2c(C(=O)NC3CCC3)cnn12
Measurement Name: pIC50
Experimental Result: < 5.60
//
Molecule: CNc1cc(Nc2cc(Cl)cn(-c3ncc(C)s3)c2=O)nc2c(C(=O)N[C@H]3C[C@H]3F)cnn12
Measurement Name: pIC50
Experimental Result: < 5.60
//
Molecule: CNc1cc(Nc2cccn([C@@H]3CCCOC3)c2=O)nc2c(C(=O)N[C@@H]3C[C@@H]3F)cnn12
Measurement Name: pIC50
Experimental Result: < 4.90
//
Molecule: CNc1cc(Nc2cc(F)cn(-c3ccn(C)n3)c2=O)nc2c(C(=O)NC3CC3)cnn12
Measurement Name: pIC50
Experimental Result: < 4.90

---

Biological target: human TYK2 (JH2domain-pseudokinase) (Homo sapiens (Human))
Experiment: TYK2 JH2 Domain Binding Assay (KINOMEscan)
pKd: −log10 of the molar value.

Compound: CNc1cc(Nc2cccnc2OC2CC2)nc2c(C(=O)N[C@@H]3CC[C@H]3O)cnn12 (stereo in doubt) [I-366]
pKd: > 9.70
//
Compound: CNc1cc(Nc2cccn(CCOC3CC3)c2=O)nc2c(C(=O)NCC3(CO)CC3)cnn12
pKd: 9.00 to 9.70
//
Compound: CNc1cc(Nc2cccn(C3CC(F)(F)C3)c2=O)nc2c(C(=O)N[C@H]3CC[C@@H]3O)cnn12 [I-1390]
pKd: 8.00 to 9.00
//
Compound: CNc1cc(Nc2cccnc2OC(F)(F)F)nc2c(C(=O)NC3CC3)cnn12
pKd: 9.00 to 9.70
//
Compound: CNc1cc(Nc2cccn([C@@H]3CCCN(CCF)C3)c2=O)nc2c(C(=O)NC3CC3)cnn12
pKd: 9.00 to 9.70
//
Compound: CNc1cc(Nc2cccnc2O[C@H]2CC[C@H](OC)CC2)nc2c(C(=O)NC3CCC3)cnn12
pKd: 9.00 to 9.70
//
Compound: CNc1cc(Nc2cccn(C3CCCCC3)c2=O)nc2c(C(=O)NC[C@@H](C)CO)cnn12
pKd: > 9.70
//
Compound: CNc1cc(Nc2cccn(C3CC(F)(F)C3)c2=O)nc2c(C(=O)N[C@@H]3CCC[C@@](C)(O)C3)cnn12
pKd: 8.00 to 9.00

---

Biological target: human TYK2 (JH2domain-pseudokinase) (Homo sapiens (Human))
Test: TYK2 JH2 Domain Binding Assay (KINOMEscan)
Method: Binding constants for compounds of the present invention against the JH2 domain were determined by the following protocol for a KINOMEscan® assay (DiscoveRx). […] The TYK2 (JH2domain-pseudokinase) fusion protein was labeled with a chimeric double-stranded DNA tag containing the NFkB binding site (5′-[…]-3′) fused to an amplicon for qPCR readout, which was added directly to the expression extract (the final concentration of DNA-tag in the binding reaction is 0.1 nM). […]
compounds and their reported Kd

Query Smiles: CNc1cc(Nc2cccn([C@H]3CCC[C@H](OC)C3)c2=O)nc2c(C(=O)NCC(C)(C)CO)cnn12
Kd: < 200 pM
--
Query Smiles: CNc1cc(Nc2cccn(C3CCOCC3)c2=O)nc2c(C(=O)NC3CC3)cnn12
Kd: < 200 pM
--
Query Smiles: CNc1cc(Nc2cccnc2C(C)(C)O)nc2c(C(=O)NC3CC3)cnn12
Kd: 1000 to 10000 pM
--
Query Smiles: CNc1cc(Nc2cccn([C@@H]3CCCN(CCC#N)C3)c2=O)nc2c(C(=O)N[C@@H]3C[C@@H]3F)cnn12
Kd: 200 to 1000 pM

Hey, just so you know, these numbers are from patent US10508120B2.
